// UniProtKB P22303 IC50 records
Sequence (P22303 whole entry): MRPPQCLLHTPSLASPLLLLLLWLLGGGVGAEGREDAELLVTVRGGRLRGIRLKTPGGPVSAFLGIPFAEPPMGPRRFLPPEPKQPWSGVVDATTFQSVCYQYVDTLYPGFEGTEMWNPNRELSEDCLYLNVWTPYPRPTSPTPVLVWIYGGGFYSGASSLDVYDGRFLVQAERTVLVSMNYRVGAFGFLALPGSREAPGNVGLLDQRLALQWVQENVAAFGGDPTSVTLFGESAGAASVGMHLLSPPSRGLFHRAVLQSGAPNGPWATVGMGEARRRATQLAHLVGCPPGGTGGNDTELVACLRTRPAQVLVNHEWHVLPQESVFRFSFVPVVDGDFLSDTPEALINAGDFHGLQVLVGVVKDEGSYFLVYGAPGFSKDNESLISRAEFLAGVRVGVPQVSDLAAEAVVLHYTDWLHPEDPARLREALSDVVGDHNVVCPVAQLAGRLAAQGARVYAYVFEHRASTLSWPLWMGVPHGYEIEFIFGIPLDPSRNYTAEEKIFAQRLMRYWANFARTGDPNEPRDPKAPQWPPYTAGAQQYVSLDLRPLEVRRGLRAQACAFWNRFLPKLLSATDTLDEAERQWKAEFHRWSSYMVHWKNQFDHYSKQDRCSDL
Numbers only, in nM.

// worked examples, IC50 included
{"Smiles representation": "CN(Cc1ccccc1)Cc1ccc(C(=O)c2ccc(OCCCCCCN3CCCCC3)cc2)cc1", "Measurement target": "UniProtKB P22303", "Output unit": "nM", "IC50": 210}
{"Smiles representation": "CN(Cc1ccccc1)Cc1ccc(C(=O)c2ccc(OCCCN3CCCCC3)cc2)cc1", "Measurement target": "UniProtKB P22303", "Output unit": "nM", "IC50": 24}

Items follow; give IC50 for each.
1. CN(Cc1ccccc1)Cc1ccc(C(=O)c2ccc(NC(=O)CN3CCCCC3)cc2)cc1
2. CN(Cc1ccccc1)Cc1ccc(C(=O)c2ccc(OCCCN3CCOCC3)cc2)cc1
3. CN(Cc1ccccc1)Cc1ccc(C(=O)c2ccc(NC(=O)CN3CCOCC3)cc2)cc1
4. CCN(CC)CC(=O)Nc1ccc(C(=O)c2ccc(CN(C)Cc3ccccc3)cc2)cc1

Key:
1: 550; 2: 107; 3: 720; 4: 210
